These entries and their values trace back to ChEMBL document CHEMBL1156202.

test name: Displacement of [3H]di-O-tolylguanidine from rat brain membrane sigma 2 receptor after 120 mins in the presence of (+)-pentazocin
readout: Ki (nM)
Respond with the bare value in nM.

Fill in the blank: the reported Ki of c1ccc(CCN2CCN(c3cccnc3)CC2)cc1 is ____.
440

Fill in the blank: the reported Ki of c1ccc(CCN2CCN(c3ccccn3)CC2)cc1 is ____.
119

Fill in the blank: the reported Ki of c1ccc(CCCN2CCN(c3cccnc3)CC2)cc1 is ____.
110

Fill in the blank: the reported Ki of c1ccc(CCN2CCN(c3ccncc3)CC2)cc1 is ____.
69.7

Fill in the blank: the reported Ki of c1ccc(CCCN2CCN(c3ccccn3)CC2)cc1 is ____.
4.91

Fill in the blank: the reported Ki of c1ccc(CCCN2CCN(c3ccncc3)CC2)cc1 is ____.
84
